Recorded values, source ChEMBL document CHEMBL2218924.

Target: Protein kinase C theta type (Homo sapiens) (UniProt Q04759)
Sequence (Q04759 whole entry, looked up): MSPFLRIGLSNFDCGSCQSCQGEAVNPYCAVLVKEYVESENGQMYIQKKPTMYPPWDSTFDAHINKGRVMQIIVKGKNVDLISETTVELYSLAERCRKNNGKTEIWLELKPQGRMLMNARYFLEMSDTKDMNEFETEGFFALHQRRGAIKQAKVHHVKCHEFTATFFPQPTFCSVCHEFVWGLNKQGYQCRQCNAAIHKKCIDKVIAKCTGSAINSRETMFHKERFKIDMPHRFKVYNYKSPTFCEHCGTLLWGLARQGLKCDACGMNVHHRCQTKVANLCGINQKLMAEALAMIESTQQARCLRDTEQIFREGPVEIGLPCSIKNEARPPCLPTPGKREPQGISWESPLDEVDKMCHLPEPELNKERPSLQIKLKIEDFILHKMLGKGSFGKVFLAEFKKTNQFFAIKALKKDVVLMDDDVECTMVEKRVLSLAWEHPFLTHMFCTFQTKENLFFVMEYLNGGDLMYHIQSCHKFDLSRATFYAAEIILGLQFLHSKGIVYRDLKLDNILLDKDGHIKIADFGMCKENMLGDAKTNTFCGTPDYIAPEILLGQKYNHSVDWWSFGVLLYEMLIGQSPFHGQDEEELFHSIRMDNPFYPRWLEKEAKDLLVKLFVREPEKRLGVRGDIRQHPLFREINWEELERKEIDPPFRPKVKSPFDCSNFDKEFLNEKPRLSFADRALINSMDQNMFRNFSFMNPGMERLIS
Details: at 1 µM
# residual activity per record follows
Kindly answer with a numeric value in %, unit omitted.

Worked set:
1. CC(C)n1cnc2c(NCc3ccccc3)nc(NCCCO)nc21; 91
2. c1ccc(-c2n[nH]c3c2oc2ccccc23)cc1; 98

Q: Input CNc1cc2c(Nc3cccc(Br)c3)ncnc2cn1 , output reported residual activity.
Ans: 100

* * *

Here, each record is paired with measured residual activity data.
Molecular target: Ephrin type-B receptor 1 (Homo sapiens)
Conditions: at 1 µM
Please state the figure in %; there is no need to write the unit.

Answered cases to consult:
1) O=c1cc(-c2cccc3c2Sc2ccccc2S3)oc(N2CCOCC2)c1; 97
2) COc1ccc(CNc2nc(N(CCO)CCO)nc3c2ncn3C(C)C)cc1; 105

Q: Supply reported residual activity belonging to this compound: COc1cc2ncnc(N3CCN(C(=O)Nc4ccc(Oc5ccccc5)cc4)CC3)c2cc1OC
Ans: 96

Q: Return the recorded residual activity value; entry: CCOc1cc2ncnc(Nc3cccc(Br)c3)c2cc1OCC
Ans: 48

Q: Return residual activity for the following compound: O=C(O)c1ccc2c3c1cccc3c(=O)n1c3ccccc3nc21
Ans: 107

Q: For the compound O=C1NC(=O)/C(=C\c2ccc3nccnc3c2)S1 , report residual activity.
Ans: 115

* * *

Target: Tyrosine-protein kinase ITK/TSK (Homo sapiens)
Conditions: at 1 µM
endpointLabel: residual activity

Past entries and their recorded results:
1. Oc1c2ccccc2c2c3c(cccc13)N=N2; 67%
2. c1ccc(-c2n[nH]cc2-c2ccnc3ccccc23)nc1; 97%

Q: // fetch residual activity given entry CO[C@H]1[C@@H](OC)C[C@H](C)[C@@H](OC)C2=CC(=O)C=C(NC(=O)/C(C)=C/C=C/[C@H](OC)[C@@H](OC(N)=O)/C(C)=C/[C@@H]1C)C2=O
Ans: 106%

Q: Please look at this molecule and report its residual activity: Nc1nc(Nc2ccc(S(N)(=O)=O)cc2)nn1C(=S)Nc1c(F)cccc1F
Ans: 44%

Q: Determine its reported residual activity: CC(=O)O/N=C1\C(=C2\C(=O)Nc3cc(Br)ccc32)Nc2ccccc21
Ans: 82%

Q: Please report residual activity for the following molecule: Cn1cnc2cc3c(Nc4cccc(Br)c4)ncnc3cc21
Ans: 104%

Q: Return residual activity (reported value) for this molecule: O=[N+]([O-])c1ccc(-c2nc(-c3ccc(F)cc3)c(-c3ccncc3)[nH]2)cc1
Ans: 108%

Q: Return value of residual activity for input Ic1cccc(CSc2nnc(-c3ccncc3)o2)c1 , no commentary.
Ans: 93%

Q: Assign residual activity to the following record: CCOc1cc2ncnc(Nc3cccc(Br)c3)c2cc1OCC
Ans: 94%

Q: Quick one: give measured residual activity for COc1cc2ncnc(Nc3ccc(Oc4ccccc4)cc3)c2cc1OC
Ans: 86%

Q: Provide measured residual activity value, entry: Nc1n[nH]c2nnc(-c3c(-c4ccccc4)nn4ccccc34)cc12
Ans: 96%

* * *

Measured residual activity, listed per entry.
Molecular target: Serine/threonine-protein kinase TAO1 (Homo sapiens)
Conditions: at 1 µM
Reply with just the number (in %).

Here are 3 molecules together with their reported answers.
1) CO[C@@H]1[C@H](N(C)C(=O)c2ccccc2)C[C@H]2O[C@]1(C)n1c3ccccc3c3c4c(c5c6ccccc6n2c5c31)C(=O)NC4; 50
2) O=C1Nc2cc(Br)ccc2/C1=C1/Nc2ccccc2/C1=N\O; 68
3) O=C(O)c1ccc2c3c1cccc3c(=O)n1c3ccccc3nc21; 90

Q: Given Cc1ccc(NC2=CC(=O)c3sc(C)nc3C2=O)cc1 , respond with its residual activity.
Ans: 91

Q: State its residual activity for this molecule: Nc1n[nH]c2nnc(-c3c(-c4ccccc4)nn4ccccc34)cc12
Ans: 87

Q: For C[C@@H](N)[C@H]1CC[C@H](C(=O)Nc2ccncc2)CC1 , write its residual activity.
Ans: 93
